assayed.system: Pim-1 stably transfected into the U2OS human osteogenic sarcoma line (Homo sapiens)
Construct: expressed in transfected cells; host or cells: U2OS human osteogenic sarcoma line
Sequence (P11309 whole entry): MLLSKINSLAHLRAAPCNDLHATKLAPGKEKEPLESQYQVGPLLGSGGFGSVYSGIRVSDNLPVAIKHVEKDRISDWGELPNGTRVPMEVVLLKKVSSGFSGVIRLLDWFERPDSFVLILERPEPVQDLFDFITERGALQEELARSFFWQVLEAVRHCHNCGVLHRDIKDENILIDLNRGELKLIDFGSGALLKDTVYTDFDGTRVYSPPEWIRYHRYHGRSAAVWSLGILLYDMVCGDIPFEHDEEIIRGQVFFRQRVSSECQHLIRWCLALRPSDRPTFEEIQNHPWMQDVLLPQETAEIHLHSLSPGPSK
measurement.notes: Pim cell assay, phospho-BAD normalized against total BAD, U2OS stably transfected with Pim-1
Assay type: cell-based
run.parameters: U2OS stably transfected with Pim-1; phospho-BAD normalized against total BAD; 29 min incubation; read-out: Pim1_Cell_IC50_
measure: IC50 (µM)
Give a bare numeral; the unit µM is implied.

CC1CCNCC1Oc1cncc(-c2n[nH]c3ccc(-c4c(F)cccc4F)cc23)n1 (single isomer, unassigned) [Example 424]    0.433

// fetch IC50 given entry `c1cc(-c2ccc3[nH]nc(-c4cncc(O[C@@H]5CCCNC5)n4)c3c2)nc(C2CC2)n1`
2.07

// fetch IC50 given entry `CN(C)c1nc(-c2c[nH]c3ccc(-c4cncc(C5CC5)n4)cc23)cc(=O)[nH]1`
0.354

// fetch IC50 given entry `c1cc2[nH]cc(-c3cncc(O[C@@H]4CCCNC4)n3)c2cc1-c1cnc2c(c1)CCCN2`
1.06

// fetch IC50 given entry `Nc1cncc(-c2ccc3[nH]nc(-c4cncc(N5CCC(N)CC5)n4)c3c2)n1`
1.37

// fetch IC50 given entry `FC(F)(F)c1ccccc1-c1ccc2[nH]nc(-c3cncc(O[C@H]4CNCCC45CC5)n3)c2c1`
2.07

// fetch IC50 given entry `c1cc2[nH]nc(-c3cncc(O[C@H]4CCNCC45CC5)n3)c2cc1-c1cncc(C2CC2)n1`
0.312
